molecular target: T1, Anti-CD28 Fab (SEQ ID NOs: 696, 697); test: phage binding ELISA on captured Fab; competitor: CD28 antigen pre-incubated in the wells
T1 construct: Biotinylated and captured on neutravidin coated plates in the phage ELISA
T1 sequence (VH, as listed by the source, chain 1 of 2): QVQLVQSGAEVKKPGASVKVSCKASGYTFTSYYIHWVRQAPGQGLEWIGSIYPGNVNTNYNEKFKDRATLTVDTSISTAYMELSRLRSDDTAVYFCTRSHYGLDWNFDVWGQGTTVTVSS
T1 sequence (VL, as listed by the source, chain 2 of 2): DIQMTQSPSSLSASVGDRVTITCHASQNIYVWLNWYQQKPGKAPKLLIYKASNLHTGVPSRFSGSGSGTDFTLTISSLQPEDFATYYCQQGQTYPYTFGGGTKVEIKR
measurementName: Anti-CD28 Fab signal in the presence of CD28 (phage binding ELISA)
Keep it simple and answer with nothing but the number.

Anti-CD28 Fab signal in the presence of CD28 (phage binding ELISA) measured on YCEGHIMQYMAQCL (tested as crude clonal phage supernatant) [Phage-1020 (Peptide-87 library peptide, SEQ ID NO: 1336)] = 0.06

Anti-CD28 Fab signal in the presence of CD28 (phage binding ELISA) measured on YCDGHSELYMAKCL (tested as crude clonal phage supernatant) [Phage-1010 (Peptide-87 library peptide, SEQ ID NO: 1326)] = 0.06

Anti-CD28 Fab signal in the presence of CD28 (phage binding ELISA) measured on YCDGHSQEYMEKCL (tested as crude clonal phage supernatant) [Phage-1014 (Peptide-87 library peptide, SEQ ID NO: 1330)] = 0.06

Anti-CD28 Fab signal in the presence of CD28 (phage binding ELISA) measured on YCDGHSAEYLSKCL (tested as crude clonal phage supernatant) [Phage-1011 (Peptide-87 library peptide, SEQ ID NO: 1327)] = 0.07

Anti-CD28 Fab signal in the presence of CD28 (phage binding ELISA) measured on YCEGHSLMYMAKCL (tested as crude clonal phage supernatant) [Phage-1013 (Peptide-87 library peptide, SEQ ID NO: 1329)] = 0.06

Anti-CD28 Fab signal in the presence of CD28 (phage binding ELISA) measured on YCDGHSEQYIAKCL (tested as crude clonal phage supernatant) [Phage-1022 (Peptide-87 library peptide, SEQ ID NO: 1338)] = 0.08

Anti-CD28 Fab signal in the presence of CD28 (phage binding ELISA) measured on YCEGHMPQYMEKCL (tested as crude clonal phage supernatant) [Phage-1012 (Peptide-87 library peptide, SEQ ID NO: 1328)] = 0.06

Anti-CD28 Fab signal in the presence of CD28 (phage binding ELISA) measured on YCDGHSPQYIQKCL (tested as crude clonal phage supernatant) [Phage-1016 (Peptide-87 library peptide, SEQ ID NO: 1332)] = 0.07
